meta.source: PubChem BioAssay (NCI)

- Tested on: RXF 393 renal
- run description: NCI-60 one-dose screen, 48 h
- details: 10 µM unless noted
The panel holds about 83,000 compounds, 20% with a hit somewhere; the sample as a whole holds those more often. Active and inactive are the calls of the source. The calls were made as follows: active = growth percent below 10; inactive = the rest.
Classes used: active, inactive

| structure as smiles | label value |
| --- | --- |
| N[C@@H](Cc1cn(-c2ccnc3ccccc23)nn1)C(=O)O | inactive |
| CS(=O)(=O)c1ccc(-c2nc3ccccn3c2C=Nc2ccc(Cl)cc2)cc1 | inactive |
| O=C(N/N=C/c1ccco1)c1[nH]c2ccc(Br)cc2c1-c1ccccc1 | inactive |
| CCCCCCNC(=O)Oc1ccc(/C(=C(/C)c2ccccc2)c2ccc(OCCN3CCCCCC3)cc2)cc1 | active |
| Clc1ccc2oc3c(NCCCn4ccnc4)c4ccccc4nc3c2c1 | inactive |
| Cc1nc(-c2cc3ccccc3oc2=O)ccc1C(=O)/C=C/c1ccccn1 | inactive |
| [Cl][Ru].c1ccc(-c2cc(-c3ccccn3)nc(-c3ccccn3)c2)cc1.c1ccc(-c2ccnc3c2ccc2c(-c4ccccc4)ccnc23)cc1 | active |
| COc1cc(/C=C/C(=O)c2cc(OC)c(OC)c(OC)c2)ccc1OCc1ccccc1 | inactive |
| Cn1ccnc1C(=O)/C=C/c1ccc(NC(=O)Nc2ccc(F)cc2)cc1 | inactive |
| COc1ccc(/C=N/NC(=O)c2[nH]c3ccc(Br)cc3c2-c2ccccc2)s1 | inactive |
| [Cl][Ru].c1ccc(-c2cccc(-c3ccccn3)n2)nc1.c1ccc(-c2ccnc3c2ccc2c(-c4ccccc4)ccnc23)cc1 | inactive |
| C=CCn1c(SCC(=O)c2ccccc2)nnc1-c1c[nH]c2ccccc12 | inactive |
| Cn1cc(-c2cc(N)n3nc(-c4cn(C)c5ccc(Cl)cc45)cc3n2)c2cc(Cl)ccc21 | inactive |
| COC(=O)C1CN(S(=O)(=O)/N=C2\NC(=O)NC2=C(Cl)Cl)C1 | inactive |
| CCOC(=O)c1c(Nc2ccccc2)nn2c(-c3ccco3)c(C#N)cnc12 | inactive |
| COc1ccc(CNS(=O)(=O)/N=C2\NC(=O)NC2=C(Cl)Cl)cc1 | inactive |
| Cc1cc(=O)oc2cc(OCCCOc3ccc(/C=C/C(=O)Nc4ccc(Cl)cc4)cc3)ccc12 | inactive |
| NS(=O)(=O)c1cccc(Nc2nc(SCC(=O)c3ccc([N+](=O)[O-])cc3)nc3ccccc23)c1 | inactive |
| N#Cc1ccc(/C=N/NC(=O)c2[nH]c3ccc(Br)cc3c2-c2ccccc2)s1 | inactive |
